- System tested: Bcl-2-related protein A1 (Homo sapiens)
- Experimental protocol: inhibitors of Bim binding to Bfl-1, dose response, biochemical, multiplexed, bead-based flow cytometry (AID 1320); further: test concentration not given here
- Condition parameters: Bim peptide-Bfl-1 binding, fluorescence
The source made the active and inactive calls. How the calls were made is not given here.
Quantity name: percent span (inhibition)

Some solved cases for reference:
1. CNc1ccc(Br)cc(C(=O)/C=C/c2ccc(OC)cc2OC)c1=O
inactive
2. CN1C(=O)/C(=C/c2ccc(-c3ccccc3[N+](=O)[O-])o2)SC1=Nc1ccc(Cl)c(C(=O)O)c1
inactive
3. Cc1ccc(/C=N/NC(=O)CSc2nnc(-c3ccc(Cl)cc3)n2-c2ccccc2)o1
inactive
4. Cc1cccn2c(=O)c3cc(C(N)=S)c(=N)n(CCCN4CCOCC4)c3nc12
inactive
5. CCN1CCN(c2cc(C)c3cc(NC(=S)N4CCCCC4)ccc3n2)CC1
inactive
6. CCn1c(C)c(/C=N/Nc2nc3ccccc3s2)c2ccccc21
inactive

Please give percent span (inhibition) for each item listed below.
1. CN(C)c1ccc(/C=C2/SC(=O)N(CCN=C3NS(=O)(=O)c4ccccc43)C2=O)cc1
2. COc1ccc(N2CCN(CCCNC(=O)CCCn3c(=O)[nH]c4ccsc4c3=O)CC2)cc1

["inactive", "inactive"]

Please give percent span (inhibition) for each item listed below.
1. COCCCNc1nc(=S)[nH]c2cc(OC)c(OC)cc12
2. NNC(=O)COc1ccccc1F

inactive
inactive

----------
- System tested: Bcl-2-related protein A1 (Homo sapiens) (UniProt Q16548)
- Sequence (Q16548 whole entry, looked up): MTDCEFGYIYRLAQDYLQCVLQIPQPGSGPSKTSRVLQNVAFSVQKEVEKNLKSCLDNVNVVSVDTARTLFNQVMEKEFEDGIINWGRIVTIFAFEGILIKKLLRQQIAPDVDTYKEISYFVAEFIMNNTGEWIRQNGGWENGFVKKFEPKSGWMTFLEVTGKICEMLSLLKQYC
- Experimental protocol: inhibitors of Bim binding to Bfl-1, dose response, biochemical, multiplexed, bead-based flow cytometry (AID 1320); further: test concentration not given here
- Condition parameters: Bim peptide-Bfl-1 binding, fluorescence
Calls of active or inactive are those of the source. No rule for the calls is given here.
Quantity name: percent span (inhibition)

Some solved cases for reference:
1) COc1ccc(CC(=O)Nc2ccc(-c3nc4cc(C)ccc4o3)c(O)c2)cc1OC
inactive
2) O=C(CCc1ccccc1)N1CCN(c2ccccn2)CC1
inactive
3) Cc1ccc(-n2c(CSc3nc(C)cc(C)n3)nnc2SCC(=O)NCc2ccco2)cc1
inactive
4) COc1ccccc1NC(=O)CSc1ncn(-c2ccccc2)n1
inactive

Please give percent span (inhibition) for each item listed below.
1. COC(=O)CSc1nccc(-c2cccs2)n1
2. COc1ccc(-c2csc(NC(=O)/C(N=Nc3ccccc3)=C(\C)O)n2)cc1
3. CCOC(=O)c1ccc(Nc2nc(C(=O)OCC)nc3ccccc23)cc1
4. CC(C)(C)C1CCC(=NNC(=O)c2cc3c(s2)CCCC3)CC1 (stereo unspecified)
5. CCC(=O)NC(c1ccc(C)cc1)c1cc([N+](=O)[O-])c2cccnc2c1O (stereo unspecified)
6. Cc1ccc2c(C)c(C(=O)Nc3nnc(C)s3)oc2c1
7. O=C(CCl)Nc1cccc2ncccc12

inactive
inactive
inactive
inactive
inactive
inactive
inactive

----------
- System tested: Bcl-2-related protein A1 (Homo sapiens) (UniProt Q16548)
- Experimental protocol: inhibitors of Bim binding to Bfl-1, dose response, biochemical, multiplexed, bead-based flow cytometry (AID 1320); further: test concentration not given here
- Condition parameters: Bim peptide-Bfl-1 binding, fluorescence
Calls of active or inactive are those of the source. How the calls were made is not given here.
Quantity name: percent span (inhibition)

Some solved cases for reference:
1) O=C(Nc1cccc(Cl)c1)Nc1ccc(Cl)cn1
inactive
2) COP(=O)(CC(=O)O)c1ccccc1 (stereo unspecified)
inactive
3) COc1ccccc1Cn1nnc2c(=O)[nH]c(C3CCN(C(=O)c4ccc(C)cc4)CC3)nc21
inactive
4) C=CCn1c(C)cc(-c2csc(NC)n2)c1C
inactive

Please give percent span (inhibition) for each item listed below.
1. COc1ccc2oc(-c3ccccc3)c(C(=O)N3CCOCC3)c2c1
2. Cc1ccc(-c2cc(C(=O)Nc3ccccc3C)c3ccccc3n2)o1
3. Cn1cc(CN2C[C@]3(C)C[C@H]2CC(C)(C)C3)c(-c2ccc3c(c2)OCCO3)n1
4. CN1/C(=C\C(=O)Nc2ccc(Cl)cc2)C(C)(C)c2ccccc21
5. CCOC(=O)c1[nH]cnc1C(=O)NC(C)C
6. O=C1N/C(=C/c2cccn2-c2ccccc2)C(=O)N1Cc1ccc(F)cc1
7. O=C1NC(=O)C2(Cc3c(nc4ccccn4c3=O)N3CCCCCC32)C(=O)N1Cc1ccccc1 (stereo unspecified)

["inactive", "inactive", "inactive", "inactive", "inactive", "inactive", "inactive"]

----------
- System tested: Bcl-2-related protein A1 (Homo sapiens) (UniProt Q16548)
- Experimental protocol: inhibitors of Bim binding to Bfl-1, dose response, biochemical, multiplexed, bead-based flow cytometry (AID 1320); further: test concentration not given here
- Condition parameters: Bim peptide-Bfl-1 binding, fluorescence
Activity calls are given as the source filed them. The rule behind the calls is not given here.
Quantity name: percent span (inhibition)

1) c1ccc(Nc2nc(-c3ccncc3)cs2)cc1
inactive
2) CCOc1ccc(C2=Nn3c(nnc3-c3ccccn3)SC2)cc1
inactive
3) Cc1sc2nc(C(C)C)nc(SCC(=O)N3c4ccccc4CC3C)c2c1C (stereo not given)
inactive
4) O=c1c2c(n3nnnc3n1Cc1ccccc1)-c1ccccc1CC21CCCC1
inactive

Please give percent span (inhibition) for each item listed below.
1. Cn1c(OCc2cccnc2)nc2c1c(=O)n(Cc1ccccc1)c(=O)n2C
2. O=C(COC(=O)c1ccccn1)NC1CCCCC1
3. CCCCOc1ccc(Cc2c(Cl)nc(SC)nc2N2CCOCC2)cc1

inactive
inactive
inactive

Please give percent span (inhibition) for each item listed below.
1. CNc1nc2ccccc2n1/N=C/c1cccc(OC)c1OC
2. CCOc1c(Cl)cc(CNc2ccc(N3CCCC3)cc2)cc1OC
3. COc1cccc(/C=C2/SC(=O)N(C)C2=O)c1OCc1ccc(C(=O)O)cc1
4. Cc1ccc(-c2cc(C(=O)N3CCN(c4ncccn4)CC3)c3cc(Br)ccc3n2)o1
5. O=C(OCc1cnc(Cl)s1)c1cccc(Cl)c1Cl
6. CC1(C(=O)N(CC(=O)NC2CCCC2)Cc2ccco2)CC(=O)N=C2C=CC=CN21 (stereo not given)
7. CCc1ccc(/C=C/C(=O)c2cc(Br)ccc(=O)c2O)cc1

inactive
inactive
inactive
inactive
inactive
inactive
inactive

Please give percent span (inhibition) for each item listed below.
1. COc1ccc(-n2c(SCC(=O)Nc3ccc(C(=O)O)cc3)nnc2-c2cccs2)cc1
2. Cc1cccc(C(=O)N2CCC(c3nc(-c4ccc(S(=O)(=O)N5CCOCC5)cc4)no3)CC2)c1

["inactive", "inactive"]

----------
- System tested: Bcl-2-related protein A1 (Homo sapiens)
- Experimental protocol: inhibitors of Bim binding to Bfl-1, dose response, biochemical, multiplexed, bead-based flow cytometry (AID 1320); further: test concentration not given here
- Condition parameters: Bim peptide-Bfl-1 binding, fluorescence
Active and inactive are the calls of the source. How the calls were made is not given here.
Quantity name: percent span (inhibition)

Some solved cases for reference:
1) COc1ccc(C(=O)NC(=S)N2CCNC(=O)C2)cc1Br
inactive
2) S=C(Nc1ccc(N2CCOCC2)cc1)Nc1ccc2nc(-c3ccco3)c(-c3ccco3)nc2c1
inactive
3) CSc1n[nH]c2nc3c(c(=O)n12)C1(CCCC1)Cc1ccccc1-3
inactive
4) COc1ccc(CCNC(=O)c2cc(-c3ccccn3)nc3c(Cl)cccc23)cc1OC
inactive

Check Bcl-2-related protein A1 (Homo sapiens) data and give percent span (inhibition) for O=C(Cc1ccc(-c2ccccc2)cc1)NC1CCCC1 .
inactive

----------
- System tested: Bcl-2-related protein A1 (Homo sapiens)
- Experimental protocol: inhibitors of Bim binding to Bfl-1, dose response, biochemical, multiplexed, bead-based flow cytometry (AID 1320); further: test concentration not given here
- Condition parameters: Bim peptide-Bfl-1 binding, fluorescence
Activity calls are given as the source filed them. The rule behind the calls is not given here.
Quantity name: percent span (inhibition)

Some solved cases for reference:
1) CCOC(=O)c1c2c3c(c(Cl)ccc3[nH]c1=O)C(=O)c1ccccc1-2
inactive
2) S=C(Nc1ccccc1)N1CCn2cccc2C1c1cccnc1 (centres undefined)
inactive
3) O=C(CSc1nnc(-c2cccs2)n1Cc1ccco1)c1ccc2c(c1)OCO2
inactive
4) O=C(Nc1nccs1)c1ccc(COc2ccc(F)cc2)o1
inactive
5) O=C1C(=O)c2ccc(-c3ccccc3)cc2-c2ccccc21
inactive

Please give percent span (inhibition) for each item listed below.
1. CNCc1ccccc1Sc1cc(O)ccc1O
2. Fc1ccc(C2=Nn3c(Cc4ccccc4F)nnc3SC2)cc1
3. Cn1c(=O)[nH]c(=O)c2c1nc(N1CCOCC1)n2CCSc1nc2ccccc2[nH]1
4. O=C1C=C(Nc2ccccc2)C(=O)c2ccccc21
5. COc1ccc(NC(=O)/C(Cl)=C(/Cl)S(=O)Cc2ccccc2)cn1 (centres undefined)
6. Cc1cccc(Nc2nc(-c3ccncc3)cs2)c1
7. CN=c1scc(C)n1/N=C/c1ccc(O)c(O)c1O
8. COc1ccc(CC(=O)Nc2ccc3nc(C)sc3c2)cc1OC

["inactive", "inactive", "inactive", "inactive", "inactive", "inactive", "inactive", "inactive"]

Please give percent span (inhibition) for each item listed below.
1. Cc1ccccc1/C=N/Nc1ccnc2cc(Cl)ccc12
2. COc1ccc(-c2nnc(SCC(=O)Nc3nc4ccccc4s3)n2C)cc1
3. CC[n+]1c(/C=C/C=C/N(C(C)=O)c2ccccc2)sc2ccccc21
4. O=C(COc1ccccc1Br)NCc1ccccn1
5. COc1ccc(OC)c2sc(NC(=O)c3ccc(Br)s3)nc12
6. CNC(=S)N(Cc1cccs1)Cc1cc2ccc(OC)cc2[nH]c1=O
7. CCOc1cc(/C=N/NC(=O)c2cccs2)cc([N+](=O)[O-])c1O
8. O=C(Nc1ccc(Cl)cn1)Nc1ccccc1F

["inactive", "inactive", "inactive", "inactive", "inactive", "inactive", "inactive", "inactive"]
